Assay: Cytotoxicity against human K562-Tax cells assessed as inhibition of cell growth incubated for 72 hrs by MTS assay
Format: functional, cell-based
pIC50 by entry:
pIC50 field: float, defined as -log10 of concentration (mol/L).

| chemical-smiles | meas-value |
| --- | --- |
| CC(=O)O[C@H]1CC[C@]2(C)[C@H]3CC[C@@H]4[C@H]5[C@H](c6ccc7c(c6)C(=O)NC7=O)CC[C@]5(CO)CC[C@@]4(C)[C@]3(C)CC[C@H]2C1(C)C | 5.13 |

Next molecule, please.
Challenge: Returns the measured pIC50 for the input molecule. Input: CC1(C)[C@@H](O)CC[C@]2(C)[C@H]3CC[C@@H]4[C@H]5[C@H](c6cc7c(c(-c8ccccc8)c6)C(=O)NC7=O)CC[C@]5(C(=O)O)CC[C@@]4(C)[C@]3(C)CC[C@@H]12
Response given: 4.98

---

Tested on: CCRF-CEM
Experiment: Induction of apoptosis in human CCRF-CEM cells assessed as necrotic cells at 1 times IC50 incubated for 24 hrs by Annexin V-FITC and PI staining based flow cytometric analysis (reference value: 0.4 %)
Format: functional
reported-endpoint: Activity (%)
Your answer should be a plain number; it is taken to be in %.

| chemical-smiles | Activity (%) |
| --- | --- |
| CC1(C)[C@@H](O)CC[C@]2(C)[C@H]3CC[C@@H]4[C@H]5[C@H](c6cc7c(c(-c8ccccc8)c6)C(=O)N(c6ccc(N)cc6)C7=O)CC[C@]5(C(=O)O)CC[C@@]4(C)[C@]3(C)CC[C@@H]12 | 0 |
| CC(=O)O[C@H]1CC[C@]2(C)[C@H]3CC[C@@H]4[C@H]5[C@H](c6cc7c(c(-c8ccccc8)c6)C(=O)N(c6cc[nH]n6)C7=O)CC[C@]5(C(=O)O)CC[C@@]4(C)[C@]3(C)CC[C@H]2C1(C)C | 0 |
| CC1(C)[C@@H](O)CC[C@]2(C)[C@H]3CC[C@@H]4[C@H]5[C@H](c6cc7c(c(-c8ccccc8)c6)C(=O)N(c6ccccc6)C7=O)CC[C@]5(C(=O)O)CC[C@@]4(C)[C@]3(C)CC[C@@H]12 | 0 |

Next compound, please.
Challenge: Returns the measured Activity for the input compound. Input: CC(=O)O[C@H]1CC[C@]2(C)[C@H]3CC[C@@H]4[C@H]5[C@H](c6cc7c(c(-c8ccccc8)c6)C(=O)N(c6nccs6)C7=O)CC[C@]5(C(=O)O)CC[C@@]4(C)[C@]3(C)CC[C@H]2C1(C)C
Response given: 0

---

Activity by entry:
Tested on: CCRF-CEM
Assay: Induction of apoptosis in human CCRF-CEM cells assessed as early apoptotic cells at 1 times IC50 incubated for 24 hrs by Annexin V-FITC and PI staining based flow cytometric analysis (reference value: 2.1 %)
Format: functional
Your answer should be a plain number; it is taken to be in %.

| chemical-smiles | Activity, % |
| --- | --- |
| CC(=O)O[C@H]1CC[C@]2(C)[C@H]3CC[C@@H]4[C@H]5[C@H](c6cc7c(c(-c8ccccc8)c6)C(=O)N(c6nccs6)C7=O)CC[C@]5(C(=O)O)CC[C@@]4(C)[C@]3(C)CC[C@H]2C1(C)C | 5.1 |
| CC1(C)[C@@H](O)CC[C@]2(C)[C@H]3CC[C@@H]4[C@H]5[C@H](c6cc7c(c(-c8ccccc8)c6)C(=O)N(c6ccccc6)C7=O)CC[C@]5(C(=O)O)CC[C@@]4(C)[C@]3(C)CC[C@@H]12 | 5.4 |
| CC1(C)[C@@H](O)CC[C@]2(C)[C@H]3CC[C@@H]4[C@H]5[C@H](c6cc7c(c(-c8ccccc8)c6)C(=O)N(c6ccc(N)cc6)C7=O)CC[C@]5(C(=O)O)CC[C@@]4(C)[C@]3(C)CC[C@@H]12 | 4.8 |

Next compound, please.
Challenge: Returns the measured Activity for the input compound. Input: CC(=O)O[C@H]1CC[C@]2(C)[C@H]3CC[C@@H]4[C@H]5[C@H](c6cc7c(c(-c8ccccc8)c6)C(=O)N(c6cc[nH]n6)C7=O)CC[C@]5(C(=O)O)CC[C@@]4(C)[C@]3(C)CC[C@H]2C1(C)C
Response given: 4.8

---

IC50 by entry:
Experiment: Cytotoxicity against human K562-Tax cells assessed as inhibition of cell growth incubated for 72 hrs by MTS assay
Format: functional, cell-based
Your answer should be a plain number; it is taken to be in µM.

Sample answers from the record:
| chemical-smiles | IC50, µM |
| --- | --- |
| COC(=O)c1cc([C@@H]2CC[C@]3(C(=O)O)CC[C@]4(C)[C@H](CC[C@@H]5[C@@]6(C)CC[C@H](O)C(C)(C)[C@@H]6CC[C@]54C)[C@@H]23)cc(C)c1C(=O)OC | 7.21 |
| COc1ccc(N2C(=O)c3ccc([C@@H]4CC[C@]5(C(=O)O)CC[C@]6(C)[C@H](CC[C@@H]7[C@@]8(C)CC[C@H](O)C(C)(C)[C@@H]8CC[C@]76C)[C@@H]45)cc3C2=O)cc1 | 5.35 |
| COC(=O)c1ccc([C@@H]2CC[C@]3(C(=O)O)CC[C@]4(C)[C@H](CC[C@@H]5[C@@]6(C)CC[C@H](O)C(C)(C)[C@@H]6CC[C@]54C)[C@@H]23)cc1C(=O)OC | 11.5 |
| COC(=O)c1ccc([C@@H]2CC[C@]3(CO)CC[C@]4(C)[C@H](CC[C@@H]5[C@@]6(C)CC[C@H](O)C(C)(C)[C@@H]6CC[C@]54C)[C@@H]23)cc1C(=O)OC | 10.3 |
| CC(=O)O[C@H]1CC[C@]2(C)[C@H]3CC[C@@H]4[C@H]5[C@H](c6cc7c(c(-c8ccccc8)c6)C(=O)N(c6cc[nH]n6)C7=O)CC[C@]5(C(=O)O)CC[C@@]4(C)[C@]3(C)CC[C@H]2C1(C)C | 13.3 |

Challenge: Returns the measured IC50 for the input compound. Input: CC1(C)[C@@H](O)CC[C@]2(C)[C@H]3CC[C@@H]4[C@H]5[C@H](c6ccc(C#N)c(C#N)c6)CC[C@]5(C(=O)O)CC[C@@]4(C)[C@]3(C)CC[C@@H]12
Response given: 5.08

Challenge: Returns the measured IC50 for the input compound. Input: COC(=O)c1cc([C@@H]2CC[C@]3(C(=O)O)CC[C@]4(C)[C@H](CC[C@@H]5[C@@]6(C)CC[C@H](O)C(C)(C)[C@@H]6CC[C@]54C)[C@@H]23)cc(-c2ccccc2)c1C(=O)OC
Response given: 4.36

Challenge: Returns the measured IC50 for the input compound. Input: CC(=O)O[C@H]1CC[C@]2(C)[C@H]3CC[C@@H]4[C@H]5[C@H](c6ccc7c(c6)C(=O)N(c6cc[nH]n6)C7=O)CC[C@]5(C(=O)O)CC[C@@]4(C)[C@]3(C)CC[C@H]2C1(C)C
Response given: 21.1

---

Assay: Cytotoxicity against human MRC5 cells assessed as inhibition of cell growth incubated for 72 hrs by MTS assay
Format: toxicity, cell-based
IC50 at 72 h by entry:

| chemical-smiles | IC50 at 72 h |
| --- | --- |
| CC(=O)Nc1ccc(N2C(=O)c3cc([C@@H]4CC[C@]5(C(=O)O)CC[C@]6(C)[C@H](CC[C@@H]7[C@@]8(C)CC[C@H](OC(C)=O)C(C)(C)[C@@H]8CC[C@]76C)[C@@H]45)cc(-c4ccccc4)c3C2=O)cc1 | 33.7 µM |
| COc1ccc(N2C(=O)c3ccc([C@@H]4CC[C@]5(COC(C)=O)CC[C@]6(C)[C@H](CC[C@@H]7[C@@]8(C)CC[C@H](OC(C)=O)C(C)(C)[C@@H]8CC[C@]76C)[C@@H]45)cc3C2=O)cc1 | > 50 µM |
| CC1(C)[C@@H](O)CC[C@]2(C)[C@H]3CC[C@@H]4[C@H]5[C@H](c6ccc(C(=O)O)c(C(=O)O)c6)CC[C@]5(C(=O)O)CC[C@@]4(C)[C@]3(C)CC[C@@H]12 | > 50 µM |

Next compound, please.
Challenge: Returns the measured IC50 at 72 h for the input compound. Input: CC(=O)O[C@H]1CC[C@]2(C)[C@H]3CC[C@@H]4[C@H]5[C@H](c6cc7c(c(-c8ccccc8)c6)C(=O)NC7=O)CC[C@]5(CO)CC[C@@]4(C)[C@]3(C)CC[C@H]2C1(C)C
Response given: > 50 µM

---

Tested on: K562
Test: Cytotoxicity against human K562 cells assessed as inhibition of cell growth incubated for 72 hrs by MTS assay
Assay type: functional, cell-based
Settings: K562, 72 h
IC50 by entry:
Your answer should be a plain number; it is taken to be in µM.

| chemical-smiles | target-desc | meas-value |
| --- | --- | --- |
| CC1(C)[C@@H](O)CC[C@]2(C)[C@H]3CC[C@@H]4[C@H]5[C@H](c6cc(C#N)c(C#N)c(-c7ccccc7)c6)CC[C@]5(C(=O)O)CC[C@@]4(C)[C@]3(C)CC[C@@H]12 | K562 | 27.8 |
| COC(=O)c1cc([C@@H]2CC[C@]3(C(=O)O)CC[C@]4(C)[C@H](CC[C@@H]5[C@@]6(C)CC[C@H](O)C(C)(C)[C@@H]6CC[C@]54C)[C@@H]23)cc(-c2ccccc2)c1C(=O)OC | K562 | 6.12 |

Next molecule, please.
Challenge: Returns the measured IC50 for the input molecule. Input: CC1(C)[C@@H](O)CC[C@]2(C)[C@H]3CC[C@@H]4[C@H]5[C@H](c6ccc(C#N)c(C#N)c6)CC[C@]5(C(=O)O)CC[C@@]4(C)[C@]3(C)CC[C@@H]12
Response given: 30
